Readout type: Kd (pM)
Form entry: value (pM) — number only.

// fetch Kd for O=C(c1ccnc(Cl)c1)N1CC2(CCN(C/C=C/c3ccc(Cl)cc3)CC2)c2cc(F)ccc21 [SYN876] ; system: D. melanogaster VAChT (Drosophila melanogaster, UniProt O17444)
Sequence (O17444 whole entry): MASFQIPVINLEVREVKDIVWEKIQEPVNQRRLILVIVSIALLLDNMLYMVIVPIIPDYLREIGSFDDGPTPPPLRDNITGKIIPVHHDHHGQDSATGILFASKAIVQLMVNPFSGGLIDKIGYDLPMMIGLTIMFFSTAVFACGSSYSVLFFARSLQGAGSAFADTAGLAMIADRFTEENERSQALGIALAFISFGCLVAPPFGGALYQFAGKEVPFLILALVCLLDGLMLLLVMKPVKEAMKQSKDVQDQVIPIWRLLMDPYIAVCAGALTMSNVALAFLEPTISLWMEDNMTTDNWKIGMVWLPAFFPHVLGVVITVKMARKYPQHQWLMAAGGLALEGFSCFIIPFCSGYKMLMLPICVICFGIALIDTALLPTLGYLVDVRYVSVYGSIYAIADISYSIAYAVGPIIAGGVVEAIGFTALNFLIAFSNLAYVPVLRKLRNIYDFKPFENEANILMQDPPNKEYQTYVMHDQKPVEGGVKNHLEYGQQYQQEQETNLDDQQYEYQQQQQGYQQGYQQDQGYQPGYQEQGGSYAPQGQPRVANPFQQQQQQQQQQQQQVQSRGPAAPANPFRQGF
40
